- Test system: red blood cell (RBC)
- experimental-context: 0.5% RBC suspension in PBS, 1 h, 37 °C, read at 414 nm, normalized to mellitin and PBS, triplicates
Non-standard residues stand in square brackets, D forms with d. Residues, ends and D or L forms follow the SMILES beside them. N(1-naphthylmethyl)Gly = O=C(O)CNCc1cccc2ccccc12; N(4-MeBn)Gly = Cc1ccc(CNCC(=O)O)cc1; NBuGly = CCCCNCC(=O)O; Nlys = NCCCCNCC(=O)O

>  <molecule>
CCCCN(CC(N)=O)C(=O)CN(CCCCN)C(=O)CN(Cc1cccc2ccccc12)C(=O)CN(CCCCN)C(=O)CN(Cc1ccc(C)cc1)C(=O)CNC(=O)CN(CCCCN)C(=O)CNCCCCN [compound 3] (H-[Nlys][Nlys]G[N(4-MeBn)Gly][Nlys][N(1-naphthylmethyl)Gly][Nlys][NBuGly]-NH2; N-terminus assumed)

>  <HA, percentage of hemolysis at 150 µM (%)>
56

$$$$

---

- System: red blood cell (RBC)
- experimental-context: 0.5% RBC suspension in PBS, 1 h, 37 °C, read at 414 nm, normalized to mellitin and PBS, triplicates
Non-standard residues stand in square brackets, D forms with d. Residues, ends and D or L forms follow the SMILES beside them. N(1-naphthylmethyl)Gly = O=C(O)CNCc1cccc2ccccc12; 1Nal = N[C@@H](Cc1cccc2ccccc12)C(=O)O; N(4-MeBn)Gly = Cc1ccc(CNCC(=O)O)cc1; Nle = CCCC[C@H](N)C(=O)O; NBuGly = CCCCNCC(=O)O; Nlys = NCCCCNCC(=O)O; Sar = CNCC(=O)O
Here, each record is paired with measured HA, percentage of hemolysis at 150 µM data.

>  <compound>
CCCCN(CC(N)=O)C(=O)CN(CCCCN)C(=O)CN(Cc1cccc2ccccc12)C(=O)CN(CCCCN)C(=O)CNC(=O)CN(Cc1cccc2ccccc12)C(=O)CN(CCCCN)C(=O)CNCCCCN [compound 4] (H-[Nlys][Nlys][N(1-naphthylmethyl)Gly]G[Nlys][N(1-naphthylmethyl)Gly][Nlys][NBuGly]-NH2; N-terminus assumed)

>  <HA, percentage of hemolysis at 150 µM, %>
40

$$$$
>  <compound>
CCCCN(CC(N)=O)C(=O)CN(CCCCN)C(=O)CN(Cc1cccc2ccccc12)C(=O)CN(C)C(=O)CN(Cc1ccc(C)cc1)C(=O)CN(Cc1cccc2ccccc12)C(=O)CN(CCCCN)C(=O)CNCCCCN [compound 9] (H-[Nlys][Nlys][N(1-naphthylmethyl)Gly][N(4-MeBn)Gly][Sar][N(1-naphthylmethyl)Gly][Nlys][NBuGly]-NH2; N-terminus assumed)

>  <HA, percentage of hemolysis at 150 µM, %>
16

$$$$
>  <compound>
CCCC[C@H](NC(=O)[C@H](CCCCN)NC(=O)[C@H](Cc1cccc2ccccc12)NC(=O)[C@H](CCCCN)NC(=O)[C@H](Cc1ccccc1)NC(=O)[C@H](Cc1cccc2ccccc12)NC(=O)[C@H](CCCCN)NC(=O)[C@@H](N)CCCCN)C(N)=O [D2L] (H-KK[1Nal]FK[1Nal]K[Nle]-NH2; N-terminus assumed)

>  <HA, percentage of hemolysis at 150 µM, %>
35

$$$$

---

- System: red blood cell (RBC)
- experimental-context: 0.5% RBC suspension in PBS, 1 h, 37 °C, read at 414 nm, normalized to mellitin and PBS, triplicates
Non-standard residues stand in square brackets, D forms with d. Residues, ends and D or L forms follow the SMILES beside them. N(1-naphthylmethyl)Gly = O=C(O)CNCc1cccc2ccccc12; 1Nal = N[C@@H](Cc1cccc2ccccc12)C(=O)O; d1Nal = N[C@H](Cc1cccc2ccccc12)C(=O)O; N(4-MeBn)Gly = Cc1ccc(CNCC(=O)O)cc1; dNle = CCCC[C@@H](N)C(=O)O; Nle = CCCC[C@H](N)C(=O)O; NBuGly = CCCCNCC(=O)O; Nlys = NCCCCNCC(=O)O
The threshold is inclusive: HA, percentage of hemolysis at 150 µM of exactly 30% counts as class 1; values below receive class 0.

>  <compound>
CCCC[C@@H](NC(=O)[C@@H](CCCCN)NC(=O)[C@@H](Cc1cccc2ccccc12)NC(=O)[C@@H](CCCCN)NC(=O)CN(Cc1ccc(C)cc1)C(=O)CN(Cc1cccc2ccccc12)C(=O)CN(CCCCN)C(=O)CNCCCCN)C(N)=O [compound 13] (H-[Nlys][Nlys][N(1-naphthylmethyl)Gly][N(4-MeBn)Gly][dK][d1Nal][dK][dNle]-NH2; N-terminus assumed)

>  <classification>
class 1

$$$$
>  <compound>
CCCCN(CC(N)=O)C(=O)CN(CCCCN)C(=O)CN(Cc1cccc2ccccc12)C(=O)CNC(=O)CN(Cc1ccc(C)cc1)C(=O)CN(Cc1cccc2ccccc12)C(=O)CN(CCCCN)C(=O)CNCCCCN [compound 5] (H-[Nlys][Nlys][N(1-naphthylmethyl)Gly][N(4-MeBn)Gly]G[N(1-naphthylmethyl)Gly][Nlys][NBuGly]-NH2; N-terminus assumed)

>  <classification>
class 0

$$$$
>  <compound>
CCCCN(CC(N)=O)C(=O)CN(CCCCN)C(=O)CN(Cc1cccc2ccccc12)C(=O)CN(Cc1ccc(C)cc1)C(=O)CN(Cc1ccc(C)cc1)C(=O)CN(Cc1cccc2ccccc12)C(=O)CN(CCCCN)C(=O)CNCCCCN [compound 10] (H-[Nlys][Nlys][N(1-naphthylmethyl)Gly][N(4-MeBn)Gly][N(4-MeBn)Gly][N(1-naphthylmethyl)Gly][Nlys][NBuGly]-NH2; N-terminus assumed)

>  <classification>
class 1

$$$$
>  <compound>
CCCCN(CC(N)=O)C(=O)CN(CCCCN)C(=O)CN(Cc1cccc2ccccc12)C(=O)CN(CCCCN)C(=O)CN(Cc1ccc(C)cc1)C(=O)CN(Cc1cccc2ccccc12)C(=O)CN(CCCCN)C(=O)CN [compound 1] (H-G[Nlys][N(1-naphthylmethyl)Gly][N(4-MeBn)Gly][Nlys][N(1-naphthylmethyl)Gly][Nlys][NBuGly]-NH2; N-terminus assumed)

>  <classification>
class 1

$$$$
>  <compound>
CCCCN(CC(N)=O)C(=O)CN(CCCCN)C(=O)CN(Cc1cccc2ccccc12)C(=O)CN(CCCCN)C(=O)CN(Cc1ccc(C)cc1)C(=O)CN(Cc1cccc2ccccc12)C(=O)CN(CCCCN)C(=O)CNCCCCN [D2] (H-[Nlys][Nlys][N(1-naphthylmethyl)Gly][N(4-MeBn)Gly][Nlys][N(1-naphthylmethyl)Gly][Nlys][NBuGly]-NH2)

>  <classification>
class 0

$$$$
>  <compound>
CCCC[C@H](N)C(=O)N[C@@H](CCCCN)C(=O)N[C@@H](Cc1cccc2ccccc12)C(=O)N[C@@H](CCCCN)C(=O)N[C@@H](Cc1ccccc1)C(=O)N[C@@H](Cc1cccc2ccccc12)C(=O)N[C@@H](CCCCN)C(=O)N[C@@H](CCCCN)C(N)=O [D2R] (H-[Nle]K[1Nal]KF[1Nal]KK-NH2; N-terminus assumed)

>  <classification>
class 0

$$$$
